Quick list: viability, T/C per entry.
- System: K12877-001-R-J1-PDC complex spheroid viability
- Protocol: Anticancer human tumor K12877-001-R-J1-PDC patient-derived lung adenocarcinoma cell line growth inhibition [RAS]
- Stated Conditions: second compound 0.316 µM; first compound 0.0316 µM; stronger effect = lower value
Measured Parameter: viability, T/C (%)

{"columns": ["Molecule", "Numeric Result"],
 "data": [
  ["CCN1CCN(Cc2ccc(Nc3ncc(F)c(-c4cc(F)c5nc(C)n(C(C)C)c5c4)n3)nc2)CC1 + C=CC(=O)N1CCN(c2nc(OCC3CCCN3C)nc3c(F)c(-c4nc(N)cc(C)c4C(F)(F)F)c(Cl)cc23)C(C)C1", 79.9],
  ["Cc1nc(N2CCC3(CC2)COC(C)C3N)c(CO)nc1Sc1ccnc(N)c1Cl (stereo not drawn) + C=CC(=O)N1CCN(c2nc(OCC3CCCN3C)nc3c(F)c(-c4nc(N)cc(C)c4C(F)(F)F)c(Cl)cc23)C(C)C1", 84.9],
  ["CC1(O)CCCC1n1c(=O)c(C(F)F)cc2cnc(NC3CCN(S(C)(=O)=O)CC3)nc21 (stereo not drawn) + C#Cc1c(F)ccc2cc(O)cc(-c3ncc4c(N5CC6CCC(C5)N6)nc(OCC56CCCN5CC(F)C6)nc4c3F)c12", 119]
]}

###

- Tested on: K12877-001-R-J1-PDC complex spheroid viability
- Protocol: Anticancer human tumor K12877-001-R-J1-PDC cell line growth inhibition [RAS];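 note: spheroids exposed to agents for one week before readout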;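 for viability, T/C: tumour cells co-cultured with HUVEC and mesenchymal stem cells in spheroids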
- Stated Conditions: second compound 0.03 µM; first compound 0.01 µM; stronger effect = lower value
Quick list: viability, T/C per entry.

{"columns": ["Compound", "viability, T/C / %"],
 "data": [
  ["O=C(c1ccc(F)c(F)c1Nc1ccc(I)cc1F)N1CC(O)([C@@H]2CCCCN2)C1 + CCn1c(-c2cccnc2C(C)OC)c2c3cc(ccc31)N1CCOC(CC(NC(=O)C(C(C)C)N(C)C(=O)C3(F)CCN(C(=O)C#CC(C)(C)N(C)C)CC3)C(=O)N3CCCC(N3)C(=O)OCC(C)(C)C2)C1", 72.8],
  ["C=CC(=O)Nc1cc(Nc2nccc(-c3cn(C)c4ccccc34)n2)c(OC)cc1N(C)CCN(C)C + CCn1c(-c2cccnc2C(C)OC)c2c3cc(ccc31)N1CCOC(CC(NC(=O)C(C(C)C)N(C)C(=O)C3(F)CCN(C(=O)C#CC(C)(C)N(C)C)CC3)C(=O)N3CCCC(N3)C(=O)OCC(C)(C)C2)C1", 73.2]
]}

###

- System: K12877-001-R-J1-PDC complex spheroid viability
- Protocol: Anticancer human tumor K12877-001-R-J1-PDC cell line growth inhibition [RAS];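 note: spheroids exposed to agents for one week before readout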
- Stated Conditions: curve of compound

{"columns": ["Compound", "IC50"],
 "data": [
  ["CC(C)n1nc(-c2ccc3oc(N)nc3c2)c2c(N)ncnc21", "25.1 nM [middle of 4 runs]"],
  ["CC1(C)CCC(Nc2ncc(C(F)(F)F)c(-c3c[nH]c4c(P(C)(C)=O)c(C#N)ccc34)n2)CN1 (stereo not drawn)", "27.1 nM [middle of 4 runs]"],
  ["CCC(CC)c1cc(NC2CCC(N)C2)n2nccc2n1 (stereo not drawn)", "1.65 µM [middle of 4 runs]"]
]}

###

- Tested on: K12877-001-R-J1-PDC complex spheroid viability
- Protocol: Anticancer human tumor K12877-001-R-J1-PDC cell line growth inhibition [RAS];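 note: spheroids exposed to agents for one week before readout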;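 for viability, T/C: tumour cells co-cultured with HUVEC and mesenchymal stem cells in spheroids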
- Stated Conditions: second compound 10 µM; first compound 3.16 µM; stronger effect = lower value
Quick list: viability, T/C per entry.

{"columns": ["Molecule", "viability, T/C (%)"],
 "data": [
  ["CC(C)NCC(C(=O)N1CCN(c2ncnc3c2C(C)CC3O)CC1)c1ccc(Cl)cc1 (stereo not drawn) + C#Cc1c(F)ccc2cc(O)cc(-c3ncc4c(N5CC6CCC(C5)N6)nc(OCC56CCCN5CC(F)C6)nc4c3F)c12", 48],
  ["CC1(O)CCCC1n1c(=O)c(C(F)F)cc2cnc(NC3CCN(S(C)(=O)=O)CC3)nc21 (stereo not drawn) + C#Cc1c(F)ccc2cc(O)cc(-c3ncc4c(N5CC6CCC(C5)N6)nc(OCC56CCCN5CC(F)C6)nc4c3F)c12", 56.3],
  ["CCC(CC)c1cc(NC2CCC(N)C2)n2nccc2n1 (stereo not drawn) + C#Cc1c(F)ccc2cc(O)cc(-c3ncc4c(N5CC6CCC(C5)N6)nc(OCC56CCCN5CC(F)C6)nc4c3F)c12", 2.41]
]}
